- Test system: Plasmodium berghei
- TEST_SUMMARY: Luciferase/luciferin-expressing antifolate-resistant parasites were used to infect a culture of HepG2 cells that were pre-incubated with compounds. Infected hepatocytes emit light due to the luciferase reaction. Assay results are presented as the percent inhibition of light emission compared to control. […]
- Assay type: functional
- MEASUREMENT_CONTEXT: sporozoite, read-out: LUCIFERASE INFECTION ASSAY - IC90
Below, each of the compounds is paired with its reported IC90 value.

Problem: Tell me the measured IC90 of CCOc1ccc(-n2c(C)cc(/C=C(\C#N)c3ccccn3)c2C)cc1 , please.
Result: > 10 µM

Problem: Tell me the measured IC90 of Cc1ccc(C(=O)C(=O)Nc2cc(S(=O)(=O)N3CCCCC3)ccc2OC(C)C)cc1 , please.
Result: > 10 µM

Problem: Tell me the measured IC90 of Cc1cc(C)c(C)c(S(=O)(=O)N2CCN(S(=O)(=O)c3ccc(C(C)C)cc3)CC2)c1C , please.
Result: > 10 µM

Problem: Tell me the measured IC90 of CCCN(CCC)Cc1c(O)ccc2c1O/C(=C\c1ccc(OCC)cc1)C2=O , please.
Result: > 8.34 µM

Problem: Tell me the measured IC90 of CNc1nc(NCc2cccc(OC)c2)c2sc(-c3ccccc3)cc2n1 , please.
Result: > 8.77 µM

Problem: Tell me the measured IC90 of Cc1noc(C)c1COC(=O)CC(c1ccccc1)c1ccccc1 , please.
Result: > 10 µM

###

Below, each of the compounds is paired with its reported IC90 value.
- Tested on: Plasmodium berghei
- TEST_SUMMARY: Luciferase/luciferin-expressing antifolate-resistant parasites were used to infect a culture of HepG2 cells that were pre-incubated with compounds. Infected hepatocytes emit light due to the luciferase reaction. Assay results are presented as the percent inhibition of light emission compared to control. […]
- Type: functional
- MEASUREMENT_CONTEXT: sporozoite, read-out: LUCIFERASE INFECTION ASSAY - IC90

Problem: Tell me the measured IC90 of COc1ccc2nc(-c3ccccc3)cc(NCCN(C)C)c2c1 , please.
Result: > 10.3 µM

Problem: Tell me the measured IC90 of Cc1ccc(-n2c(SCc3nc4ccccc4c(=O)o3)nnc2-c2ccccc2)cc1C , please.
Result: > 10 µM

Problem: Tell me the measured IC90 of CCCCCCCCCCCCN1C(=O)CSC1c1cccnc1 (stereo not given) , please.
Result: > 9.47 µM

Problem: Tell me the measured IC90 of COc1ccc(-c2cnc3cnc(-c4ccc(N5CCN(C)CC5)cc4)cn23)cc1 , please.
Result: > 8.26 µM

Problem: Tell me the measured IC90 of CC(C)CN1CCC1(C(=O)NCc1cccc2ccccc12)c1ccccc1 (stereo not given) , please.
Result: > 8.86 µM

Problem: Tell me the measured IC90 of CCOc1cccc(C(=O)Nc2c(C)cc(Br)cc2C)c1 , please.
Result: > 9.48 µM

Problem: Tell me the measured IC90 of OCc1cccc(Nc2nc(-c3ccsc3)nc3ccccc23)c1 , please.
Result: > 10 µM

Problem: Tell me the measured IC90 of COC(=O)c1cccc(NC(=S)NC(=O)c2ccc(C(C)(C)C)cc2)c1 , please.
Result: > 8.91 µM

Problem: Tell me the measured IC90 of O=C(NCCN1CCN(c2ncnc3sc4c(c23)CCC4)CC1)c1ccco1 , please.
Result: > 10 µM

Problem: Tell me the measured IC90 of CCN1C(=O)N(Cc2cccc(OC)c2)C(=O)C12CCN(CC(c1ccccc1)c1ccccc1)CC2 , please.
Result: > 6.63 µM

Problem: Tell me the measured IC90 of O=C1C(=C2SCCCS2)CC/C1=C\c1ccccc1 , please.
Result: 5.73 µM

Problem: Tell me the measured IC90 of CCn1c(NC(=O)Cc2csc(-n3c(C)ccc3C)n2)nc2ccccc21 , please.
Result: > 10 µM
